Kindly state B-score functional assay for each of the entries shown.
target: human NTCP (Homo sapiens, UniProt Q14973); assay: Screening taurocholate uptake assay (96-well, [14C]taurocholate, 10 µM drug); conditions: Prestwick library screen, 10 µM drug; B-score of taurocholate uptake
Structures can show the parent of a compound that is named as a salt.
Please respond with just the number, no unit label.

The observed B-score functional assay for CCOC(=O)C1=C(COCCN)NC(C)=C(C(=O)OC)C1c1ccccc1Cl (centres unmarked) when tested with human NTCP (Homo sapiens, UniProt Q14973) stands at 0.5

// B-score functional assay (human NTCP (Homo sapiens, UniProt Q14973)) for CN1CCOC(c2ccccc2)c2ccccc2C1 (centres unmarked) [Nefopam hydrochloride] = 0.705

B-score functional assay for human NTCP (Homo sapiens, UniProt Q14973) with input CCOC(=O)[C@H](CCc1ccccc1)N[C@H]1CCc2ccccc2N(CC(=O)O)C1=O [Benazepril HCl] equals 1.384

Form field B-score functional assay for item CC(C)C[C@H](CN)CC(=O)O on human NTCP (Homo sapiens, UniProt Q14973): 1.204

Per the reported human NTCP (Homo sapiens, UniProt Q14973) data, CN1C(=O)CCS(=O)(=O)C1c1ccc(Cl)cc1 (centres unmarked) has B-score functional assay of 0.286

----------
target: human NTCP (Homo sapiens, UniProt Q14973); experiment: Screening taurocholate uptake assay (96-well, [14C]taurocholate, 10 µM drug); conditions: ranking over the functional and the binding screening assay
Counter-ions that a name gives are not always drawn.
Short version: Ranking score at least 100 is met, less is not met.

(Q) Does the compound Oc1cc(Cl)ccc1Oc1ccc(Cl)cc1Cl have recorded Ranking score that is 100 or more?
(A) met

(Q) Does the compound CC(=O)N(O)CCCCCNC(=O)CCC(=O)N(O)CCCCCNC(=O)CCC(=O)N(O)CCCCCN [Deferoxamine mesylate] have recorded Ranking score that is 100 or more?
(A) met

(Q) Evaluate O=C(O)c1cc(/N=N/c2ccc(S(=O)(=O)Nc3ccccn3)cc2)ccc1O : Ranking score at minimum 100?
(A) not met

(Q) Is the recorded value of Ranking score equal to or greater than 100 for this compound? CN[C@@H]1[C@H](O[C@H]2[C@H](O[C@H]3[C@H](O)[C@@H](O)[C@H](NC(=N)N)[C@@H](O)[C@@H]3NC(=N)N)O[C@@H](C)[C@]2(O)CO)O[C@@H](CO)[C@H](O)[C@H]1O [Dihydrostreptomycin sulfate]
(A) met

(Q) Assess whether reported Ranking score for C[N+]1(C)CCOC(O)(c2ccc(-c3ccc(C4(O)C[N+](C)(C)CCO4)cc3)cc2)C1.[Br-].[Br-] (stereo not shown) [Hemicholinium bromide] sits at 100 or higher.
(A) met

(Q) Is reported Ranking score greater than or equal to 100 here: C[C@]12CC[C@@H]3c4ccc(OS(=O)(=O)O)cc4CC[C@H]3[C@@H]1CCC2=O [Estropipate]
(A) not met

(Q) Can C#C[C@]1(O)CC[C@H]2[C@@H]3CCc4cc(O)ccc4[C@H]3CC[C@@]21C be said to have Ranking score at or above 100?
(A) met

----------
I'd appreciate it if you could supply B-score functional assay values for the items below.
Biological target: human NTCP (Homo sapiens, UniProt Q14973)
Sequence (Q14973 1-349): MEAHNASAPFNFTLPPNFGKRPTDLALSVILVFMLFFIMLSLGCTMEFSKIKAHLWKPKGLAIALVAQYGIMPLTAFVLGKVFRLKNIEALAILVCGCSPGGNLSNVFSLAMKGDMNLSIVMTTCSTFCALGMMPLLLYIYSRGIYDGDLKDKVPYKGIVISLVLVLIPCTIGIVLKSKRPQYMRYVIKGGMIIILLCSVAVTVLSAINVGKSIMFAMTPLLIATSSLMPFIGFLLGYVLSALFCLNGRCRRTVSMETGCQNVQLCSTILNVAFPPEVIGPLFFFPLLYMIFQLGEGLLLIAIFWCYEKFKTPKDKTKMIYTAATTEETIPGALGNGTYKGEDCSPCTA
Assay: Screening taurocholate uptake assay (96-well, [14C]taurocholate, 10 µM drug)
Conditions: Prestwick library screen, taurocholate uptake, 10 µM drug
Structures can show the parent of a compound that is named as a salt.
Kindly provide the number alone.

The reported value for CCN(CC)Cc1cc(Nc2ccnc3cc(Cl)ccc23)ccc1O.Cl.Cl.O.O [Amodiaquin dihydrochloride dihydrate] in terms of B-score functional assay is -0.477

B-score functional assay reported for this compound CC(=O)O[C@H]1C(=O)[C@@]2(C)[C@H]([C@H](OC(=O)c3ccccc3)[C@]3(O)C[C@H](OC(=O)[C@H](O)[C@@H](NC(=O)c4ccccc4)c4ccccc4)C(C)=C1C3(C)C)[C@]1(OC(C)=O)CO[C@@H]1C[C@@H]2O : -0.069

The compound listed as CN(C)[C@@H]1C(O)=C(C(N)=O)C(=O)[C@@]2(O)C(O)=C3C(=O)c4c(O)cccc4[C@@](C)(O)[C@H]3C[C@@H]12 [Tetracycline hydrochloride] has a reported B-score functional assay of 0.067

The measured B-score functional assay associated with CO[C@H]1/C=C/O[C@@]2(C)Oc3c(C)c(O)c4c(c3C2=O)C2=NC3(CCN(CC(C)C)CC3)NC2=C(NC(=O)/C(C)=C\C=C\[C@H](C)[C@H](O)[C@@H](C)[C@@H](O)[C@@H](C)[C@H](OC(C)=O)[C@@H]1C)C4=O reads 1.309

Short answer for CCN(CC)C(C)CN1c2ccccc2Sc2ccccc21 (stereo not shown) [Ethopropazine hydrochloride] : B-score functional assay was 0.753

So for COc1ccccc1Oc1c(NS(=O)(=O)c2ccc(C(C)(C)C)cc2)nc(-c2ncccn2)nc1OCCO , the logged B-score functional assay turned out to be 0.07

Field B-score functional assay (entry CC1(C)O[C@@H]2C[C@H]3[C@@H]4C[C@H](F)C5=CC(=O)C=C[C@]5(C)[C@H]4[C@@H](O)C[C@]3(C)[C@]2(C(=O)CO)O1 [Flunisolide] ) reads 0.152

The compound CCOc1nc2cccc(C(=O)O)c2n1Cc1ccc(-c2ccccc2-c2nnn[nH]2)cc1 showed B-score functional assay equal to 0.287

Sample O=C(CCCN1CCC(O)(c2ccc(Br)cc2)CC1)c1ccc(F)cc1 ; B-score functional assay observed: 0.496

Record Nc1ccn([C@H]2CC[C@@H](CO)O2)c(=O)n1 . Reported B-score functional assay: 1.286

CC1(C)O[C@@H]2C[C@H]3[C@@H]4C[C@H](F)C5=CC(=O)C=C[C@]5(C)[C@@]4(F)[C@@H](O)C[C@]3(C)[C@]2(C(=O)CO)O1 [Fluocinolone acetonide] yielded B-score functional assay of 0.621

In plain terms, CC[C@]12CCCN3CCc4c(n(c5ccccc45)[C@@](O)(C(=O)OC)C1)[C@@H]32 has a documented B-score functional assay of -0.257

The recorded B-score functional assay for Cc1onc(-c2ccccc2)c1-c1ccc(S(N)(=O)=O)cc1 is -0.028

----------
Molecular target: human NTCP (Homo sapiens, UniProt Q14973)
Sequence (Q14973 1-349): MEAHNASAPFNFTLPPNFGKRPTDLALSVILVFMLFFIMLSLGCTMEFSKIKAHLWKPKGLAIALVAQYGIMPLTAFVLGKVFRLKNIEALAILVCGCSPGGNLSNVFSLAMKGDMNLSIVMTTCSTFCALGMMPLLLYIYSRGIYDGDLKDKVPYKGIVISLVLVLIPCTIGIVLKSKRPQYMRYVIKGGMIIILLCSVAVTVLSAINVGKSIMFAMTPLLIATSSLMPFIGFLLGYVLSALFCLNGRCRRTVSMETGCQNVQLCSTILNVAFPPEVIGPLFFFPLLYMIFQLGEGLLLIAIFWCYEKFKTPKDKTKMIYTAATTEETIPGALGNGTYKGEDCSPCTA
Experiment: Screening taurocholate uptake assay (96-well, [14C]taurocholate, 10 µM drug)
Details: Prestwick library screen, 10 µM drug; B-score of taurocholate uptake
Counter-ions that a name gives are not always drawn.
Response field label takes true when B-score functional assay is strictly below 0.7 and false in all other cases.

(Q) Hello, is B-score functional assay of the following compound strictly smaller than 0.7? Cl.N=C(N=C(N)N)N1CCOCC1 [Moroxidine hydrochloride]
(A) false

(Q) Input Cn1cnc([N+](=O)[O-])c1Sc1ncnc2nc[nH]c12 [Azathioprine] ; condition: B-score functional assay strictly below 0.7. Does it hold?
(A) false

(Q) A record lists CC(C)N(CCC(C(N)=O)(c1ccccc1)c1ccccn1)C(C)C (stereo not drawn) [Disopyramide] . Is its B-score functional assay below 0.7?
(A) true

(Q) I wonder whether CCN(CC)C(C)C(=O)c1ccccc1 (stereo not drawn) [Amfepramone hydrochloride] has B-score functional assay below 0.7. Can you tell?
(A) true

(Q) Problem: For the compound CC(C)(C)NC[C@H](O)COc1nsnc1N1CCOCC1.O=C(O)/C=C\C(=O)O [Timolol maleate salt] , is B-score functional assay under 0.7?
(A) false

(Q) State whether 0.7 exceeds B-score functional assay recorded for Cc1cc(C2CCCCC2)n(O)c(=O)c1.NCCO [Ciclopirox ethanolamine] .
(A) false

(Q) I'd appreciate it if you could check whether C=CCSCC1Nc2cc(Cl)c(S(N)(=O)=O)cc2S(=O)(=O)N1 (stereo not drawn) [Althiazide] has B-score functional assay smaller than 0.7.
(A) true

(Q) Please state whether B-score functional assay is below 0.7 for COc1cc(C(=O)NC2CCCNC2)cc(OC)c1OC (stereo not drawn) [Troxipide]
(A) true

(Q) Check if B-score functional assay falls below 0.7 for CCOC(=O)[C@H](CCc1ccccc1)N[C@@H](C)C(=O)N1[C@H](C(=O)O)C[C@@H]2CCC[C@@H]21 [Ramipril] .
(A) false

(Q) Is it true that B-score functional assay reported for CCOC(=O)[C@H](CCc1ccccc1)N[C@@H](C)C(=O)N1Cc2ccccc2C[C@H]1C(=O)O [Quinapril HCl] is less than 0.7?
(A) false

(Q) Below 0.7 on B-score functional assay? Entry OC[C@H]1O[C@@H](Oc2ccc(O)cc2)[C@H](O)[C@@H](O)[C@@H]1O [Arbutin]
(A) false

(Q) Field: below-cutoff. Rule: recorded B-score functional assay strictly less than 0.7. Subject: CC(C(=O)O)c1ccc(N2Cc3ccccc3C2=O)cc1 (stereo not drawn) [Indoprofen]
(A) false

(Q) Consider Cc1cc2cc3c(C)cc(=O)oc3c(C)c2o1 [Trioxsalen] . Does its B-score functional assay lie strictly below 0.7?
(A) true

(Q) Answer whether the compound O=C1c2ccccc2S(=O)(=O)N1CCCCN1CCN(c2ncccn2)CC1 [Ipsapirone] has B-score functional assay strictly less than 0.7
(A) false

(Q) Report whether reported B-score functional assay is lower than 0.7 (strictly) for CN[C@@H]1[C@@H](O)[C@@H](O[C@@H]2[C@@H](O)[C@H](O[C@H]3OC(CN)=CC[C@H]3N)[C@@H](N)C[C@H]2N)OC[C@]1(C)O [Sisomicin sulfate]
(A) false

(Q) B-score functional assay strictly < 0.7 for this compound? C[C@@]1(O)CCOC(=O)C1 [Mevalonic-D, L acid lactone]
(A) true

(Q) API: query returns whether the compound falls strictly under 0.7 in B-score functional assay. Query: CC[C@H]1OC(=O)[C@H](C)[C@@H](O[C@H]2C[C@@](C)(OC)[C@@H](O)[C@H](C)O2)[C@H](C)[C@@H](O[C@@H]2O[C@H](C)C[C@H](N(C)C)[C@H]2O)[C@](C)(O)C[C@@H](C)C(=O)[C@H](C)[C@@H](O)[C@]1(C)O [Erythromycin]
(A) false

(Q) Field: below-cutoff. Rule: recorded B-score functional assay strictly less than 0.7. Subject: NS(=O)(=O)c1cc2c(cc1Cl)NC(C(Cl)Cl)NS2(=O)=O (stereo not drawn) [Trichlormethiazide]
(A) true

(Q) Is it true that B-score functional assay reported for O=C(NCNC(=O)NC1C(=O)NC(=O)N1CO)NC1C(=O)NC(=O)N1CO (stereo not drawn) [Imidurea] is less than 0.7?
(A) false

(Q) Identify whether the compound CC(C)(C)NC[C@H](O)c1ccc(O)c(CO)c1 [Levalbuterol hydrochloride] records B-score functional assay below 0.7.
(A) true

(Q) B-score functional assay strictly < 0.7 for this compound? CCN(CC)C(=O)Nc1ccc(OCC(O)CNC(C)(C)C)c(C(C)=O)c1 (stereo not drawn) [Celiprolol HCl]
(A) false

(Q) Field: below-cutoff. Rule: recorded B-score functional assay strictly less than 0.7. Subject: COc1ccc(NS(=O)(=O)c2ccc(N)cc2)nn1 [Sulfamethoxypyridazine]
(A) true

(Q) In plain terms, does Nc1nc(/C(=C/CC(=O)O)C(=O)N[C@@H]2C(=O)N3C(C(=O)O)=CCS[C@H]23)cs1 [Ceftibuten] come in under 0.7 for B-score functional assay?
(A) true

(Q) In the record for c1ccc(CC2=NCCN2)cc1 [Tolazoline hydrochloride] , is B-score functional assay less than 0.7?
(A) false

(Q) Consider c1ccc(CN(CC2=NCCN2)c2ccccc2)cc1 [Antazoline hydrochloride] . Does its B-score functional assay lie strictly below 0.7?
(A) false

(Q) Lab note: B-score functional assay threshold 0.7. Does this compound come in strictly under it? CN(C)CCC(c1ccc(Cl)cc1)c1ccccn1 (stereo not drawn) [Chlorpheniramine maleate]
(A) false

(Q) Hello, is B-score functional assay of the following compound strictly smaller than 0.7? CN1CCc2c(c3ccccc3n2Cc2ccccc2)C1.O=S(=O)(O)c1cccc2c(S(=O)(=O)O)cccc12 [Mebhydroline 1,5-naphtalenedisulfonate]
(A) true

(Q) is_below(B-score functional assay, 0.7) for CC(C)(CO)[C@@H](O)C(=O)NCCCO [Panthenol (D)] ?
(A) true

(Q) Say whether its B-score functional assay is strictly beneath 0.7. Entry: NS(=O)(=O)c1cc2c(cc1C(F)(F)F)NCNS2(=O)=O [Hydroflumethiazide]
(A) true

(Q) Hi there! Is B-score functional assay for O=C1CCC(N2C(=O)c3ccccc3C2=O)C(=O)N1 (stereo not drawn) [Thalidomide] below 0.7, do you know?
(A) true

(Q) Determine if CC[C@@H](CO)NC(=O)[C@@H]1C=C2c3cccc4[nH]cc(c34)C[C@H]2N(C)C1 [Methylergometrine maleate] shows B-score functional assay strictly lower than 0.7.
(A) false

(Q) A record lists O=C(O)c1ccccc1C(=O)Nc1ccc(S(=O)(=O)Nc2nccs2)cc1 [Phthalylsulfathiazole] . Is its B-score functional assay below 0.7?
(A) false

(Q) Criterion: B-score functional assay strictly below 0.7. Is it met by Fc1ccc([C@@H]2CCNC[C@H]2COc2ccc3c(c2)OCO3)cc1 [Paroxetine Hydrochloride] ?
(A) true
